The measured values listed here are drawn from ChEMBL document CHEMBL5678796.

# experiment: Inhibition of recombinant bovine GGTase I incubated for 30 min sin presence of [3H]FPP by SPA based Topcount scintillation plate reader analysis
# Parameters: species or system Bos taurus

chemical_string	IC50
Cn1cncc1[C@@](N)(c1ccc(Cl)cc1)c1ccc2c(c1)c(-c1cccc(Cl)c1)cc(=O)n2C	1.04 µM
NC(=O)N1CCC(CC(=O)N2CCC([C@H]3c4ncc(Br)cc4CCc4cc(Cl)cc(Br)c43)CC2)CC1	> 10 µM
Cn1cncc1[C@](O)(COc1ccc(C#N)cc1-c1ccc(OC(F)(F)F)cc1)c1ccc(C#N)cc1	> 10 µM

====

# experiment: Oral bioavailability in rat at 25 mg/kg
# Format: ADME, organism-based
# condition_description: in vivo

compound	bioavailability
Cn1cncc1[C@](O)(COc1ccc(C#N)cc1-c1ccc(OC(F)(F)F)cc1)c1ccc(C#N)cc1 [ABT-100]	30.7%

====

# experiment: Cmax in rat at 25 mg/kg, po
# Format: ADME, organism-based
# condition_description: in vivo

compound	unit_abbrev	Cmax
Cn1cncc1[C@](O)(COc1ccc(C#N)cc1-c1ccc(OC(F)(F)F)cc1)c1ccc(C#N)cc1 [ABT-100]	ng/mL	740

====

# experiment: AUC in rat at 25 mg/kg, po
# Assay type: ADME, organism-based
# condition_description: in vivo
measurement_type: AUC

chemical_string	measurement_type	endpoint_result
Cn1cncc1[C@](O)(COc1ccc(C#N)cc1-c1ccc(OC(F)(F)F)cc1)c1ccc(C#N)cc1	AUC	4620 ng·h/mL

====

# experiment: Inhibition of recombinant human FTase incubated for 30 mins in presence of [3H]FPP by SPA based Topcount scintillation plate reader analysis
measurement_type: IC50 (nM)

chemical_string	measurement_type	endpoint_result
Cn1cncc1[C@@](N)(c1ccc(Cl)cc1)c1ccc2c(c1)c(-c1cccc(Cl)c1)cc(=O)n2C	IC50	0.45
NC(=O)N1CCC(CC(=O)N2CCC([C@H]3c4ncc(Br)cc4CCc4cc(Cl)cc(Br)c43)CC2)CC1	IC50	4.9
Cn1cncc1[C@](O)(COc1ccc(C#N)cc1-c1ccc(OC(F)(F)F)cc1)c1ccc(C#N)cc1	IC50	0.05

====

# experiment: AUC in dog at 2.5 mg/kg, po
# Type: ADME, organism-based, Canis lupus familiaris
# condition_description: in vivo
measurement_type: AUC (ng·h/mL)

chemical_string	measurement_type	endpoint_result
Cn1cncc1[C@](O)(COc1ccc(C#N)cc1-c1ccc(OC(F)(F)F)cc1)c1ccc(C#N)cc1	AUC	2840
